Molecular target: TBK1 (Homo sapiens (Human))
Sequence (Q9UHD2 whole entry): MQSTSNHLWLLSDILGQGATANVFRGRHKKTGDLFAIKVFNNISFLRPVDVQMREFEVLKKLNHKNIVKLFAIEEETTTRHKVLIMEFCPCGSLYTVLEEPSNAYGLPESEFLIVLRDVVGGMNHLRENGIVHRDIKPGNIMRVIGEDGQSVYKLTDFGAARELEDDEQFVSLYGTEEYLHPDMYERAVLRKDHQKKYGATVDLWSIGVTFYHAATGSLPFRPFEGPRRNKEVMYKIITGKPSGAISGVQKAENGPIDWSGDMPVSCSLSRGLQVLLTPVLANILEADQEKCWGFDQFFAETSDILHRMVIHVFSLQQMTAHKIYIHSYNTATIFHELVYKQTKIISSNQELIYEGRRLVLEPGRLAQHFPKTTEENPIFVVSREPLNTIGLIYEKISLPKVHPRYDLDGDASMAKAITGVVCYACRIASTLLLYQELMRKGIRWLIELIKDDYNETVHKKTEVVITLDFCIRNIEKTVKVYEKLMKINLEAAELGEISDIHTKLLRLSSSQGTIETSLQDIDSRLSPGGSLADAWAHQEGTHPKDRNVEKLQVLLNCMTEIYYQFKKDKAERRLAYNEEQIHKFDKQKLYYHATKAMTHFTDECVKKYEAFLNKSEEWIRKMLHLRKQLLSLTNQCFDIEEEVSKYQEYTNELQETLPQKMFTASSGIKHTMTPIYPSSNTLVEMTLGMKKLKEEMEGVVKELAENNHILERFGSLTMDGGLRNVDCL
Assay: TBK1 TR-FRET enzymatic assay;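 also: phosphorylation of a biotinylated Ser/Thr peptide by purified full-length recombinant TBK1, read by TR-FRET after 240 min at 25 °C, IC50 is the geometric mean of at least four runs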
reported-endpoint: IC50 (nM)
Kindly answer with a numeric value in nM, unit omitted.

Task item: Give IC50 for this entry on TBK1 (Homo sapiens (Human)): COC[C@H](O)C(=O)N1CC[C@H](Oc2ccc(-c3ncnc(Nc4ccc(N5CCN(C6COC6)CC5)cc4)n3)cc2C#N)[C@H](F)C1 [Example 618]
Reply: 2

Task item: Fill in: IC50 on TBK1 (Homo sapiens (Human)), entry C[C@H](O)C(=O)N1CC[C@H](Oc2ccc(-c3ncnc(Nc4ccc(N5CCN(C6COC6)CC5)cc4F)n3)cc2C#N)[C@H](F)C1 [Example 375]
Reply: 1000

Task item: Check TBK1 (Homo sapiens (Human)) data and give IC50 for C[C@H]1CN(C)CCN1c1ccc(Nc2ncnc(-c3ccc(O[C@H]4CCN(C(=O)[C@@H](O)CO)C[C@H]4F)c(C#N)c3)n2)cc1 [Example 515] .
Reply: 2

Task item: Report IC50 on TBK1 (Homo sapiens (Human)) for this entry: C[C@@H](O)CC(=O)N1CC[C@H](Oc2ccc(-c3ncnc(Nc4ccc(N5CCN(C6COC6)CC5)cc4)n3)cc2C#N)[C@H](F)C1 [Example 471]
Reply: 6

Task item: Tell me its IC50 on TBK1 (Homo sapiens (Human)): COc1cc(Nc2ncnc(-c3ccc(OC4CCOCC4)c(C#N)c3)n2)ccc1C(N)=O [Example 21]
Reply: 4

Continuing:
Task item: Tell me its IC50 on TBK1 (Homo sapiens (Human)): CCn1ncc(Nc2ncnc(-c3ccc(O[C@H]4CCN(C(=O)CO)C[C@H]4F)c(C#N)c3)n2)n1 [Example 503]
Reply: 7

Value source: patent US10040781B2
